- measuredOn: human IL-23R (Homo sapiens)
- Construct: Nanoluc luciferase (Nluc); secretion signal encoded by the plasmid (not specified); crude membranes used in the assay
- Sequence (Q5VWK5 22-629): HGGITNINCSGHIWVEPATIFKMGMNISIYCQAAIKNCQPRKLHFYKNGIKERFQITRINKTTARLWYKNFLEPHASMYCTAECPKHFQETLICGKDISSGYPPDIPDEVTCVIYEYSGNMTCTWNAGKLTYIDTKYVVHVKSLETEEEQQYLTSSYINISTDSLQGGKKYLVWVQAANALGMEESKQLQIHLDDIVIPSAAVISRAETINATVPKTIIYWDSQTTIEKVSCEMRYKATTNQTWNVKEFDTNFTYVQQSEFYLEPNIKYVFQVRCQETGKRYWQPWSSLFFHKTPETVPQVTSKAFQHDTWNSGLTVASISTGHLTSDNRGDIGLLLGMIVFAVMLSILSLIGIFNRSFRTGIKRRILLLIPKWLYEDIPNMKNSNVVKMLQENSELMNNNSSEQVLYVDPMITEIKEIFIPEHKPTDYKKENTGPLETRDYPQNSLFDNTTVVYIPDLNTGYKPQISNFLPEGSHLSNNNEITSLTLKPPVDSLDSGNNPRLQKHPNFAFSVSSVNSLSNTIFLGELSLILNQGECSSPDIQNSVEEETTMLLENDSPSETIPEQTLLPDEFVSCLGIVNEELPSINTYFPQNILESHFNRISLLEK
- assayMethodText: Binding assay: displacement of fluorophore (TAMRA)-labelled reference compound from human IL-23R (BRET, Nluc-IL23R fusion protein membranes)
Collected IC50 values appear next to each entry.

smiles: CNC(=O)[C@H](Cc1cccnc1)NC(=O)[C@H](COC)NC(=O)[C@@H]1CCC(=O)NCc2ccc(cc2)CC(=O)N[C@@H](C)C(=O)N[C@H]2CCC(=O)NCC[C@H](NC(=O)[C@H](CCC(N)=O)NC(=O)[C@H](Cc3c[nH]c4ccccc34)NC2=O)C(=O)N[C@@H](Cc2ccc(N3CCOCC3)cc2)C(=O)N[C@@H](Cc2ccc3ccccc3c2)C(=O)NC(C)(C)C(=O)N1
scaleUnit: nM
IC50: 0.23
//
smiles: CNC(=O)[C@H](Cc1cccnc1)NC(=O)[C@H](CCN)NC(=O)[C@@H]1CCC(=O)NCc2ccc(cc2)CC(=O)N[C@@H](C)C(=O)N[C@H]2CCC(=O)NCC[C@H](NC(=O)[C@H](CCC(N)=O)NC(=O)[C@H](Cc3c[nH]c4ccccc34)NC2=O)C(=O)N[C@@H](Cc2ccc(N3CCOCC3)cc2)C(=O)N[C@@H](Cc2ccc3ccccc3c2)C(=O)NC(C)(C)C(=O)N1
scaleUnit: nM
IC50: 0.073
//
smiles: CNC(=O)[C@H](Cc1cccnc1)NC(=O)[C@](C)(CO)NC(=O)[C@@H]1CCC(=O)NCc2ccc(cc2)CC(=O)N[C@@H](CO)C(=O)N[C@H]2CCC(=O)NCC[C@H](NC(=O)[C@H](CCC(N)=O)NC(=O)[C@H](Cc3c[nH]c4ccccc34)NC2=O)C(=O)N[C@@H](Cc2ccc(OCCN)cc2)C(=O)N[C@@H](Cc2ccc3ccccc3c2)C(=O)N[C@@](C)(CC(C)C)C(=O)N1
scaleUnit: nM
IC50: 0.024
